I'd appreciate it if you could supply HLM values for the items below.
ASSAY_INFO: Microsomal stability assay, human liver microsomes;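 further: pooled human liver microsomes at 0.25 mg/mL with 1 µM compound and NADPH at 37 °C, pH 7.4, for 30 min, unchanged parent quantified by LC-MS/MS against the 0 min sample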
EXPERIMENTAL_CONDITIONS: human liver microsomes
Answers are plain numbers, in µL/min/mg.

{"columns": ["COMPOUND", "HLM, µL/min/mg"],
 "data": [
  ["CO[C@H](C)C(=O)N[C@@H](Cc1cccc(C#N)c1)[C@H](O)CN[C@H]1CC2(CCC2)Oc2c(-c3ccncc3)cc(CC(C)C)cc21 [compound 620]", 48],
  ["CC(C)(C)Cc1cnc2c(c1)[C@@H](NC[C@@H](O)[C@H](Cc1ccc(F)cc1)NC(=O)COC(F)F)CC1(CCC1)O2 [compound 647]", 303],
  ["COCC(=O)N[C@@H](Cc1cccc(C#N)c1)[C@H](O)CN[C@H]1CC2(CCC2)Oc2c(-c3ccncc3)cc(CC(C)C)cc21 [compound 619]", 35],
  ["CCC(=O)N[C@@H](Cc1ccc2c(c1)OCO2)[C@H](O)CN[C@H]1CC2(CCC2)Oc2ncc(CC(C)C)cc21 [compound 726]", 34],
  ["CO[C@H](C)C(=O)N[C@@H](Cc1cc(F)cc(-c2nccs2)c1)[C@H](O)CN[C@H]1CC2(CCC2)Oc2cnc(CC(C)(C)F)cc21 [compound 721]", 111]
]}

Would you kindly share the measured HLM for COCC(=O)N[C@@H](Cc1cc(F)cc(F)c1)[C@H](O)CN[C@H]1CC2(CCC2)Oc2c1cc(Cl)cc2-n1ccnc1 [compound 581] ?
91
